molecular target: Cyclic GMP-AMP synthase (Homo sapiens, UniProt Q8N884); experiment: Inhibition of N-terminal 6His-SUMO tagged human cGAS (1 to 522 residues) extracted from Escherichia coli BL21(DE3)pLysS cells using GTP/ATP as substrate by measuring cGAMP production incubated for 90 mins in presence of 45 base pair DNA by mass spectrometric analysis
Sequence (Q8N884 whole entry, the tested form may be a part): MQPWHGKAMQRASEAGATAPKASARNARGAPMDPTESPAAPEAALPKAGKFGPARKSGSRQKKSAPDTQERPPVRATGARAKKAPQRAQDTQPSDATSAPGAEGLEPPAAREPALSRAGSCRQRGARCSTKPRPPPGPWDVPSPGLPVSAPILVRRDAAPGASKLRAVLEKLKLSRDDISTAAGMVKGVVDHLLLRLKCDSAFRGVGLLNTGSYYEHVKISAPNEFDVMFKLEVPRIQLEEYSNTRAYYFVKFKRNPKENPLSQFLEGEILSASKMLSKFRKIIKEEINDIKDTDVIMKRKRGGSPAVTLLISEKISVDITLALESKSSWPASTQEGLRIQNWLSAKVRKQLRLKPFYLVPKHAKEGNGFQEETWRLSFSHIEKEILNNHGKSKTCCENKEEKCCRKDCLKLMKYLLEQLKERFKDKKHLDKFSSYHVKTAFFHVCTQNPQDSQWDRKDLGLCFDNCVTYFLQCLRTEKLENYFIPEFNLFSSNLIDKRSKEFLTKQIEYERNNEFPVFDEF
Recorded endpoint: IC50 (nM)

C[C@H]1CN2CC[C@H]1n1c(nc3ccccc31)O[C@H]1C[C@@H](C(=O)O)N(C1)c1nc(nc3c1oc1ccccc13)C(F)(F)COCCCCC2=O :: 2.1
CC(=O)[C@@H]1C[C@H]2CN1c1nc(nc3c1oc1ccccc13)CCOCCCC(=O)N1CC[C@@H]([C@@H](C)C1)n1c(nc3cc(Cl)ccc31)O2 :: 2.8
